measuredOn: T1, HLA-DR11 (HLA-DRB1*11:01) (human)
T1 construct: mature; purified from homozygous EBV-transformed lymphoblastoid cells with antibody L243
methodDescription: competition ELISA vs biotin-HA 306-318;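 further: HLA and competitor incubated 24 to 72 h, maximal signal taken from wells lacking competitor, background from wells lacking HLA molecule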
No end group written: not given here.
Assignment: determine reported relative affinity for the given binders.
Give bare numbers.

Solved cases (6 shown):
TAMFIASKYEEMYPP-NH2 [CCNB1 250-264]: 6
RPLPLHFLRRASKIG-NH2 [CCNB1 299-313]: 0.1
FRLLQETMYMTVSII-NH2 [CCNB1 216-230]: 14
GDFAFVTDNTYTKHQ-NH2 [CCNB1 267-281]: 1330
GNMRAILIDWLVQVQ-NH2 [CCNB1 199-213]: 77
VQMKFRLLQETMYMT-NH2 [CCNB1 212-226]: 5

Proceeding to the next binder to report its relative affinity.
Req: Identify measured relative affinity corresponding to ETMYMTVSIIDRFMQ-NH2 [CCNB1 221-235]
Resp: 1

Reference source for all entries: patent US20180086804A1
